// reported inhibition per item
molecular target: Hexose transporter 1 (Plasmodium falciparum); test: ST_JUDE_LEISH: Cytotoxicity at 2uM final concentration against transgenic Leishmania Mexicana promastigotes LmPfHT that are glucose transport deficient and complemented with the Plasmodium falciparum hexose transporter. Activity is measured by DNA content using SYBR green in vitro; type: functional
Readout Type: inhibition (%)

>  <Compound>
Cc1ccc(N2C(N)=NC(N)=NC2(C)C)cc1Cl

>  <Test System>
Hexose transporter 1 (Plasmodium falciparum)

>  <Numeric Value>
8.8

$$$$
>  <Compound>
COc1ccc(Nc2nc(N)c3cc(OC)c(OC)cc3n2)cc1OC

>  <Test System>
Hexose transporter 1 (Plasmodium falciparum)

>  <Numeric Value>
7.54

$$$$
>  <Compound>
O=C(Nc1cccc(N2CCC(NCCCn3ccnc3)CC2)c1)c1cccc(C(F)(F)F)c1

>  <Test System>
Hexose transporter 1 (Plasmodium falciparum)

>  <Numeric Value>
-0.71

$$$$
>  <Compound>
Cc1cc(CNCCCCCCCNCc2ccc(Cl)cc2)ccc1O

>  <Test System>
Hexose transporter 1 (Plasmodium falciparum)

>  <Numeric Value>
3.98

$$$$
>  <Compound>
Clc1ccc(-c2cnc3ccc(NCCc4cccnc4)nn23)cc1

>  <Test System>
Hexose transporter 1 (Plasmodium falciparum)

>  <Numeric Value>
-1.47

$$$$
>  <Compound>
CCOc1ccc(NC(=O)c2ccc(NCCCN3CC(C)CC(C)C3)c([N+](=O)[O-])c2)cc1 (stereo unspecified)

>  <Test System>
Hexose transporter 1 (Plasmodium falciparum)

>  <Numeric Value>
0.9

$$$$
>  <Compound>
CC1CC(NCCCNc2cc(=O)c3ccccc3[nH]2)c2cc(Cl)c(Cl)c(Cl)c21 (stereo unspecified)

>  <Test System>
Hexose transporter 1 (Plasmodium falciparum)

>  <Numeric Value>
-1.47

$$$$
>  <Compound>
Cc1cccc(NC(=O)NCc2ccccc2)n1

>  <Test System>
Hexose transporter 1 (Plasmodium falciparum)

>  <Numeric Value>
1.46

$$$$
>  <Compound>
COc1ccc(CCNCCCCCNCCCc2ccc(Cl)cc2)cc1OC

>  <Test System>
Hexose transporter 1 (Plasmodium falciparum)

>  <Numeric Value>
-1.18

$$$$
>  <Compound>
O=C1C(=Cc2cc(Cc3ccccc3)ccc2O)SC(=S)N1Cc1ccccc1

>  <Test System>
Hexose transporter 1 (Plasmodium falciparum)

>  <Numeric Value>
7.14

$$$$
>  <Compound>
O=C(N[C@@H](Cc1ccccc1)C(=O)NC1CCCCCC1)c1ccc(O)c(-c2ccc(Cl)c(Cl)c2)c1

>  <Test System>
Hexose transporter 1 (Plasmodium falciparum)

>  <Numeric Value>
3.77

$$$$
>  <Compound>
O=C(NC1CC1)c1ccc(N2CCCC(COc3ccc4c(c3)CCCC4)C2)nc1 (stereo unspecified)

>  <Test System>
Hexose transporter 1 (Plasmodium falciparum)

>  <Numeric Value>
1.8

$$$$
>  <Compound>
O=S(=O)(c1ccc(OCc2ccc(Cl)cc2)cc1)c1cc2c(cc1OCc1ccccc1)CCN(CC1CC1)CC2

>  <Test System>
Hexose transporter 1 (Plasmodium falciparum)

>  <Numeric Value>
-1.17

$$$$
>  <Compound>
C=CCc1cc(Cc2cnc(N)nc2N)c2ccc(C)nc2c1OC

>  <Test System>
Hexose transporter 1 (Plasmodium falciparum)

>  <Numeric Value>
6.7

$$$$
>  <Compound>
CCc1c(CCNCCCCCCNCc2ccc3c(c2CC)OCO3)ccc(OC)c1OC

>  <Test System>
Hexose transporter 1 (Plasmodium falciparum)

>  <Numeric Value>
0.77

$$$$
>  <Compound>
Cc1ccc(Nc2nccc(N(C)c3ccc4c(c3)nc(NC(=O)Cc3ccc(Cl)c(Cl)c3)n4C)n2)cc1S(N)(=O)=O

>  <Test System>
Hexose transporter 1 (Plasmodium falciparum)

>  <Numeric Value>
11.6

$$$$
>  <Compound>
O=C(c1ccc(F)c(F)c1)N1CCOC(CCN2CCC(c3ccccc3)CC2)(c2ccc(Cl)c(Cl)c2)C1 (stereo unspecified)

>  <Test System>
Hexose transporter 1 (Plasmodium falciparum)

>  <Numeric Value>
2.12

$$$$
>  <Compound>
Cc1ccc(O)cc1Nc1ccnc2cc(-c3ccccc3)ccc12

>  <Test System>
Hexose transporter 1 (Plasmodium falciparum)

>  <Numeric Value>
8.41

$$$$
>  <Compound>
Cc1ccc(CNC(=O)[C@H](CC(C)C)Nc2cc(C)nc(Nc3ccccc3)n2)cc1

>  <Test System>
Hexose transporter 1 (Plasmodium falciparum)

>  <Numeric Value>
4.07

$$$$
>  <Compound>
CCNS(=O)(=O)c1ccc(Oc2ccc([N+](=O)[O-])cc2)cc1

>  <Test System>
Hexose transporter 1 (Plasmodium falciparum)

>  <Numeric Value>
-1.31

$$$$
>  <Compound>
Cc1ccc2[nH]c3c(NCCCN4CCOCC4)ncnc3c2c1

>  <Test System>
Hexose transporter 1 (Plasmodium falciparum)

>  <Numeric Value>
-2.37

$$$$

* * *

molecular target: Glucose transporter (Leishmania mexicana) (UniProt O61059); assay: ST_JUDE_LEISH: Cytotoxicity at 2uM final concentration against transgenic Leishmania Mexicana promastigotes LmGT2 that are glucose transport deficient and complemented with the L. Mexicana glucose transporter 2. Activity is measured by DNA content using SYBR green in vitro; type: functional
Entries and their inhibition values follow.
Readout Type: inhibition (%)

>  <Compound>
COc1ccc2nccc([C@@H](O)CN3CCC(NC(=O)C(c4cc5ccccc5o4)N4CCC(Cc5ccccc5)CC4)CC3)c2c1 (stereo partly specified)

>  <Readout Type>
inhibition

>  <Numeric Value>
2.23

$$$$
>  <Compound>
CN(C)c1ccc(C(c2ccc(N(C)C)cc2)c2cc([N+](=O)[O-])ccc2Cl)cc1

>  <Readout Type>
inhibition

>  <Numeric Value>
-3.09

$$$$
>  <Compound>
OCC1CCN(Cc2ccc(-c3ccc(-c4nc5cc(F)ccc5[nH]4)s3)cc2)CC1

>  <Readout Type>
inhibition

>  <Numeric Value>
4.89

$$$$
>  <Compound>
O=C(Nc1ccc(C(F)(F)F)cc1)NC1CCN(c2ccnc3cc(Cl)ccc23)CC1

>  <Readout Type>
inhibition

>  <Numeric Value>
4.68

$$$$
>  <Compound>
Cc1cccc(-c2nc3cc(NC(=O)c4ccc([N+](=O)[O-])o4)ccc3o2)c1

>  <Readout Type>
inhibition

>  <Numeric Value>
2.04

$$$$
>  <Compound>
Oc1cc(NCc2ccccc2NCc2ccc(Cl)c(Cl)c2)nc2ccccc12

>  <Readout Type>
inhibition

>  <Numeric Value>
3.11

$$$$
>  <Compound>
CN1Cc2cc(NC(=O)/C=C/c3ccccc3Cl)ccc2C(C)(C)C1

>  <Readout Type>
inhibition

>  <Numeric Value>
6.98

$$$$
>  <Compound>
c1ccc2sc(Sc3ncnc4sccc34)nc2c1

>  <Readout Type>
inhibition

>  <Numeric Value>
0.27

$$$$
>  <Compound>
CCOc1ccc(-c2nc(NC(=O)CS(=O)(=O)c3ccccc3)sc2C)cc1

>  <Readout Type>
inhibition

>  <Numeric Value>
1.8

$$$$
>  <Compound>
CSc1nccc(-c2ccc3ccnc(N)c3c2)n1

>  <Readout Type>
inhibition

>  <Numeric Value>
9.37

$$$$
>  <Compound>
CN(C)CCNCc1cccc(-c2cccc(-c3nc4ccccc4[nH]3)c2)c1

>  <Readout Type>
inhibition

>  <Numeric Value>
1.85

$$$$
>  <Compound>
C=CCn1c(SCC(=O)Nc2cc(Cl)ccc2Cl)nc2sc(C)cc2c1=O

>  <Readout Type>
inhibition

>  <Numeric Value>
0.76

$$$$
>  <Compound>
Cc1cc(=NN=Cc2cccc(Cl)c2)c2ccccc2[nH]1

>  <Readout Type>
inhibition

>  <Numeric Value>
3.65

$$$$
>  <Compound>
COc1ccc2c(NN=Cc3ccc(Cl)cc3)ccnc2c1

>  <Readout Type>
inhibition

>  <Numeric Value>
4.63

$$$$
>  <Compound>
N#Cc1ccc(OCCN(Cc2ccccc2C(F)(F)F)c2ccc(C#N)c(C(F)(F)F)c2)cc1

>  <Readout Type>
inhibition

>  <Numeric Value>
8.53

$$$$
>  <Compound>
CN1CCN(c2ccc(-c3cccc(NC(=O)c4ccc5ccccc5c4)c3)nn2)CC1

>  <Readout Type>
inhibition

>  <Numeric Value>
7.19

$$$$
>  <Compound>
O=C(Nc1cccc(CN2CCCN(CC3CC3)CC2)c1)c1ccc(-c2ccccc2)cc1

>  <Readout Type>
inhibition

>  <Numeric Value>
-0.4

$$$$
>  <Compound>
O=C(NC1CC1)c1cnc(N2CCN(Cc3c(F)cccc3Cl)CC2)c(Cl)c1

>  <Readout Type>
inhibition

>  <Numeric Value>
-3.18

$$$$
>  <Compound>
CC(=O)Nc1ccc(CN(Cc2ccc(OC(C)(C)C)cc2)Cc2ccc3c(c2)OCCO3)cc1

>  <Readout Type>
inhibition

>  <Numeric Value>
6.45

$$$$
>  <Compound>
Cn1c(=O)n(C)c2cc(CNCCNc3ccnc4cc(Cl)ccc34)ccc21

>  <Readout Type>
inhibition

>  <Numeric Value>
0.4

$$$$
>  <Compound>
COc1ccc(-c2nc(NC(=O)CSc3ccc([N+](=O)[O-])cc3)sc2C)cc1

>  <Readout Type>
inhibition

>  <Numeric Value>
-1.33

$$$$
>  <Compound>
COc1ccccc1NC(=O)Nc1ccc(-c2cccc(-c3nc4ccccc4[nH]3)c2)cc1

>  <Readout Type>
inhibition

>  <Numeric Value>
3.27

$$$$
>  <Compound>
O=c1cc(N2CCCNCC2)c(Cl)nn1Cc1ccc(NS(=O)(=O)c2ccc(Oc3ccccc3)cc2)cc1

>  <Readout Type>
inhibition

>  <Numeric Value>
8.55

$$$$
>  <Compound>
CC(C)(C)c1ccc(C(=O)Nc2cccc(Nc3c(C(=O)NCc4cccc(C(F)(F)F)c4)cnc4c(O)cccc34)c2)cc1

>  <Readout Type>
inhibition

>  <Numeric Value>
9.37

$$$$
>  <Compound>
NC(=O)c1ccc(C(=O)Nc2cccc(-c3cccc(-c4nc5cc(C(F)(F)F)ccc5[nH]4)c3)c2)cc1

>  <Readout Type>
inhibition

>  <Numeric Value>
2.11

$$$$
>  <Compound>
COc1ccc(Cl)cc1-c1nc(C(=O)NCCN2CCCCC2)c(C(C)C)s1

>  <Readout Type>
inhibition

>  <Numeric Value>
3.06

$$$$
>  <Compound>
O=C(NCc1cc2c(cc1Cl)OCO2)c1ccc(CNC2CCN(Cc3ccccc3)CC2)cc1

>  <Readout Type>
inhibition

>  <Numeric Value>
0.48

$$$$
>  <Compound>
CNCCNCc1ccc(-c2ccc(-c3nc4cc(F)ccc4[nH]3)s2)cc1

>  <Readout Type>
inhibition

>  <Numeric Value>
8.77

$$$$
>  <Compound>
Nc1c(Cl)cc(C(O)CNCCCCCCCCCc2ccccn2)cc1Cl (stereo unspecified)

>  <Readout Type>
inhibition

>  <Numeric Value>
0.6

$$$$
>  <Compound>
Fc1cccc(COc2ccc(-n3ccc4c(NCCCn5ccnc5)ncnc43)cc2Cl)n1

>  <Readout Type>
inhibition

>  <Numeric Value>
1.59

$$$$
>  <Compound>
CC1CN(Cc2cccc(F)c2)CCN1c1ccc(NC(=O)c2cccs2)cc1 (stereo unspecified)

>  <Readout Type>
inhibition

>  <Numeric Value>
-2.09

$$$$
>  <Compound>
CC(C)[C@H](NC(=O)c1ccc(O)c(-c2cccc(C(F)(F)F)c2)c1)C(=O)NC1CCCc2ccccc21 (stereo partly specified)

>  <Readout Type>
inhibition

>  <Numeric Value>
0.81

$$$$
>  <Compound>
CCCc1cc(NC2CCN(C)CC2)nc(Nc2cccc(OC)c2)n1

>  <Readout Type>
inhibition

>  <Numeric Value>
6.84

$$$$
>  <Compound>
CC(=NNC(S)=NCCc1ccccn1)c1ccccn1

>  <Readout Type>
inhibition

>  <Numeric Value>
6.19

$$$$
>  <Compound>
Cc1cc(Nc2ncc(Cl)c(Nc3ccccc3C(N)=O)n2)n[nH]1

>  <Readout Type>
inhibition

>  <Numeric Value>
3.02

$$$$
>  <Compound>
COc1ccc2nccc([C@@H](O)CN3CCC(NCc4ccc(OC)c(NC=O)c4)CC3)c2c1

>  <Readout Type>
inhibition

>  <Numeric Value>
2.18

$$$$
>  <Compound>
CCCn1c(O)nnc1SCC(=O)Nc1cc(C(F)(F)F)ccc1Cl

>  <Readout Type>
inhibition

>  <Numeric Value>
6.33

$$$$
>  <Compound>
O=C(Nc1ccccc1-c1nc2ccccc2s1)C(Cl)(Cl)Cl

>  <Readout Type>
inhibition

>  <Numeric Value>
0.54

$$$$
>  <Compound>
CN1CCC(Oc2ccc(NC(=O)c3ccc4c(=O)n(Cc5ccccc5)cnc4c3)cc2Cl)CC1

>  <Readout Type>
inhibition

>  <Numeric Value>
8.76

$$$$
>  <Compound>
COc1ccc2[nH]ccc(=NN=Cc3cccc(C)n3)c2c1

>  <Readout Type>
inhibition

>  <Numeric Value>
11.8

$$$$
>  <Compound>
CCCCCCCCc1c(C)[nH]c(C)c(Cl)c1=O

>  <Readout Type>
inhibition

>  <Numeric Value>
-0.99

$$$$
